Measured values drawn from patent US8415373B2 for this set.

Target: human NK3 receptor (Homo sapiens)
Construct: expressed in transfected cells
Sequence (P29371 whole entry): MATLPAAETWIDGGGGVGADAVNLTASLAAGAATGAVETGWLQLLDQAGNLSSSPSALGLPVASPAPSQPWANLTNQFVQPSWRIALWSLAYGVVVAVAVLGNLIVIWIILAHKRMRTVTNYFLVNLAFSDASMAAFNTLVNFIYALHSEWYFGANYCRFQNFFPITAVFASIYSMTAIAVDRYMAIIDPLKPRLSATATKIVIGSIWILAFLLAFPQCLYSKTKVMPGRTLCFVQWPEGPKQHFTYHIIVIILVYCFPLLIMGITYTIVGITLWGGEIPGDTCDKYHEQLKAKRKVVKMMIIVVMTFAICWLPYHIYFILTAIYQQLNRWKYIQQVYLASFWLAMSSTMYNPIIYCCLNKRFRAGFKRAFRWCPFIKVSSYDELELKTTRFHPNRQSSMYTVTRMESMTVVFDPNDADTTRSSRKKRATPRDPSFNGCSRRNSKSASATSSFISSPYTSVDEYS
Assay: NK3 receptor binding assay (SPA-based competition binding, 125I-NKB)
Conditions: read-out: Affinity (Ki/nM)
PROPERTY_MEASURED: Ki (nM)

a: Cc1c(C(=O)N[C@H](c2ccc(F)c(F)c2)C2CCC2)c2cccc(F)c2c(=O)n1Cc1ncco1 [Example 4b]
b: Cc1c(C(=O)N[C@H](c2cccc(F)c2)C2CC2)c2cccc(F)c2c(=O)n1Cc1ccoc1 [Example 2a]
c: Cc1c(C(=O)N[C@H](c2cccc(F)c2)C2CC2)c2cccc(F)c2c(=O)n1Cc1cc(F)ccc1F [Example 2d]
d: Cc1nonc1Cn1c(C)c(C(=O)N[C@H](c2cccc(F)c2)C2CCC2)c2cccc(F)c2c1=O [Example 2v]
(Q) Could you please order the items by Ki, going from the lowest number to the highest? Form entry: ranked labels (order as requested).
(A) a, d, b, c
(a: 4 nM, d: 6.6 nM, b: 28 nM, c: 180 nM)
